# measurementTarget: Human NKp46 Fc tag (Acro Biosystems, NC1-H5257) (human), O76036
# Sequence (O76036 22-255 limits assumed): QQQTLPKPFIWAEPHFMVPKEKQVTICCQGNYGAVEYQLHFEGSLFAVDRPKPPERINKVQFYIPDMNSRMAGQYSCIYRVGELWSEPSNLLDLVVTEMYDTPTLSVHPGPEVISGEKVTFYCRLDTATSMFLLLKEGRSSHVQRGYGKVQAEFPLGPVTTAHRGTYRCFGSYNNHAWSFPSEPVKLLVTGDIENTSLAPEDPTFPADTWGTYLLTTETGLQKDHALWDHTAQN
# assayMethodText: SPR Method 1 and/or 2
pKd: −log10 of the molar value.
measurementName: pKd

Use these answered entries as a reference point.
binder | pKd
ACNLQNPCMKFPCA (modifications not checked) [BCY15102] | 5.96
ACDLQTHNCQWGICA (modifications not checked) [BCY18277] | 5.82
ACDLTTHNCIWGVCA (modifications not checked) [BCY14458] | 5.90

I: ACNLQAPCMYTGKVCA (modifications not checked) [BCY18318]
II: ACDLTTHNCQWGACA (modifications not checked) [BCY18272]
Input line: # return whichever of I and II has the smaller pKd Provide the label of your selected option as the answer.
Output line: II

Sourced from patent US20240108738A1
